Every entry's value here was drawn from ChEMBL document CHEMBL1153036.

Property: pIC50; scope: individual compounds
Biological target: M-phase inducer phosphatase 2 (Homo sapiens, UniProt P30305)
Sequence (P30305 whole entry): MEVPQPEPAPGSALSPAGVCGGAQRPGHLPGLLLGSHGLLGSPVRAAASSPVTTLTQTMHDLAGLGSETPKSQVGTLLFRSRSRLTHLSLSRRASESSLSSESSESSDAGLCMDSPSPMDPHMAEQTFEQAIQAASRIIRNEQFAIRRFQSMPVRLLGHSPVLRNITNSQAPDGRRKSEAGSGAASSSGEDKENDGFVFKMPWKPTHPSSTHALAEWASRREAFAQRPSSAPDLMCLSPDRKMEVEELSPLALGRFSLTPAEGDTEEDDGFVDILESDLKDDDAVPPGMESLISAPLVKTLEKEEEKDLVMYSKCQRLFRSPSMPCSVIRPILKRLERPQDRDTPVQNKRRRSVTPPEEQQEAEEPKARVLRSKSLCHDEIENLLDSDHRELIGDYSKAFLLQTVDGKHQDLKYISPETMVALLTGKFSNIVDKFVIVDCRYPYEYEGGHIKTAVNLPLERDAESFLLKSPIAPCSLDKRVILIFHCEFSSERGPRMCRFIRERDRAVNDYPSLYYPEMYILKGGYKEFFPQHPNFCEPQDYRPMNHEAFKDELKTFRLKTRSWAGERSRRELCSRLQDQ
pIC50: −log10 of the molar value.
READOUT LABEL: pIC50

[[record]]
sample_smiles = "O=C1N=C(Nc2cccc(O)c2)S/C1=C\\c1cccs1"
readout_label = "pIC50"
measured_value = 5.55

[[record]]
sample_smiles = "O=C1N=C(Nc2cccc(Cl)c2Cl)S/C1=C\\C=C\\c1ccco1"
readout_label = "pIC50"
measured_value = 5.68

[[record]]
sample_smiles = "Cc1ccc(-c2nnc(SCC(=O)c3ccc(O)c(O)c3)n2-c2ccccc2)cc1"
readout_label = "pIC50"
measured_value = 5.60

[[record]]
sample_smiles = "CC(=C/c1ccccc1)/C=C1\\SC(Nc2ccc(Br)cc2)=NC1=O"
readout_label = "pIC50"
measured_value = 5.29

[[record]]
sample_smiles = "O=C1N=C(Nc2cccc(Cl)c2)S/C1=C\\C=C\\c1ccco1"
readout_label = "pIC50"
measured_value = 5.49

[[record]]
sample_smiles = "COc1ccc(-c2nnc(SCC(=O)c3ccc(O)c(O)c3)n2-c2ccccc2)cc1"
readout_label = "pIC50"
measured_value = 5.77

[[record]]
sample_smiles = "O=C1N=C(Nc2cccc(Br)c2)S/C1=C\\C=C\\c1ccco1"
readout_label = "pIC50"
measured_value = 5.57

[[record]]
sample_smiles = "O=C1N=C(Nc2ccc(Cl)cc2Cl)S/C1=C\\C=C\\c1ccco1"
readout_label = "pIC50"
measured_value = 5.35

[[record]]
sample_smiles = "C=Cn1c(SCC(=O)c2ccc(Cl)cc2)nnc1-c1ccco1"
readout_label = "pIC50"
measured_value = 5.28

[[record]]
sample_smiles = "COc1ccc(-n2c(SCC(=O)c3ccc(O)c(O)c3)nnc2-c2ccc(C)cc2)cc1"
readout_label = "pIC50"
measured_value = 5.33

[[record]]
sample_smiles = "Cc1ccc(-c2nnc(SCC(=O)c3ccc(O)c(O)c3)n2Cc2ccco2)cc1"
readout_label = "pIC50"
measured_value = 5.64

[[record]]
sample_smiles = "O=C1N=C(Nc2ccc(Cl)cc2)S/C1=C\\c1cccs1"
readout_label = "pIC50"
measured_value = 5.36

[[record]]
sample_smiles = "CC(=C/c1ccccc1)/C=C1\\SC(Nc2ccc(C)c(C)c2)=NC1=O"
readout_label = "pIC50"
measured_value = 5.64

[[record]]
sample_smiles = "O=C1N=C(Nc2ccccc2Cl)S/C1=C\\C=C\\c1ccco1"
readout_label = "pIC50"
measured_value = 5.68

[[record]]
sample_smiles = "O=C1N=C(Nc2cc(Cl)cc(Cl)c2)S/C1=C\\c1c[nH]c2ccccc12"
readout_label = "pIC50"
measured_value = 5.64

[[record]]
sample_smiles = "Cc1ccc(/N=C2N=C(O)/C(=C/C=C/c3ccco3)S\\2)cc1C"
readout_label = "pIC50"
measured_value = 5.74

[[record]]
sample_smiles = "Cn1c(SCC(=O)c2ccc([N+](=O)[O-])cc2)nnc1-c1cccc(Cl)c1"
readout_label = "pIC50"
measured_value = 5.36

[[record]]
sample_smiles = "Cn1cccc1/C=C1\\SC(Nc2ccc(F)cc2)=NC1=O"
readout_label = "pIC50"
measured_value = 5.43

[[record]]
sample_smiles = "CCn1c(SCC(=O)c2ccc(Cl)cc2)nnc1-c1cccnc1"
readout_label = "pIC50"
measured_value = 5.22


---

Catalogue of IC50 values
Biological target: M-phase inducer phosphatase 1 (Homo sapiens, UniProt P30304)
Sequence (P30304 whole entry): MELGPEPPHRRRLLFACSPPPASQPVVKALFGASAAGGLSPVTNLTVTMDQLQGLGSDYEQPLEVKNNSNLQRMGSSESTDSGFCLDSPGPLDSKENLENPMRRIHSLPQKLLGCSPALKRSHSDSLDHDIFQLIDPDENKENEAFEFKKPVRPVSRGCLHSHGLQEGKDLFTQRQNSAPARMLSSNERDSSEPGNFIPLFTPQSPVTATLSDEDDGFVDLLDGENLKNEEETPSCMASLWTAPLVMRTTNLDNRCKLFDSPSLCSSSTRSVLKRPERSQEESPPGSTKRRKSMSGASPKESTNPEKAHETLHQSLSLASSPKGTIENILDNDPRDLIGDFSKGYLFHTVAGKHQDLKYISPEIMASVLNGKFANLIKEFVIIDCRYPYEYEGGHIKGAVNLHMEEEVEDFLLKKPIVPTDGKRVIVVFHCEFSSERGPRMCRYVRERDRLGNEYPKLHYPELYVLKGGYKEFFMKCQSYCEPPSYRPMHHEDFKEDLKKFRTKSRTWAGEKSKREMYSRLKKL
READOUT LABEL: IC50 (µM)

[[record]]
sample_smiles = "CC(=C/c1ccccc1)/C=C1\\SC(Nc2ccc(C)c(C)c2)=NC1=O"
readout_label = "IC50"
measured_value = 8.1

[[record]]
sample_smiles = "CC(=C/c1ccccc1)/C=C1\\SC(Nc2cccc(Cl)c2)=NC1=O"
readout_label = "IC50"
measured_value = 12.8

[[record]]
sample_smiles = "Cn1c(SCC(=O)c2ccc([N+](=O)[O-])cc2)nnc1-c1cccc(NC(=O)c2ccccc2F)c1"
readout_label = "IC50"
measured_value = 19

[[record]]
sample_smiles = "CCn1c(SCC(=O)c2ccc(Cl)cc2)nnc1-c1cccnc1"
readout_label = "IC50"
measured_value = 17.2

[[record]]
sample_smiles = "O=C(CSc1nnc(-c2ccc(Cl)cc2)n1-c1ccccc1)c1ccc(O)c(O)c1"
readout_label = "IC50"
measured_value = 11.5

[[record]]
sample_smiles = "O=C1N=C(Nc2cccc(Br)c2)S/C1=C\\C=C\\c1ccco1"
readout_label = "IC50"
measured_value = 7.7

[[record]]
sample_smiles = "Cn1c(SCC(=O)c2ccc(-c3ccccc3)cc2)nnc1-c1ccco1"
readout_label = "IC50"
measured_value = 13

[[record]]
sample_smiles = "Cn1cccc1/C=C1\\SC(Nc2ccc(Cl)cc2)=NC1=O"
readout_label = "IC50"
measured_value = 15.4

[[record]]
sample_smiles = "COc1ccc(-n2c(SCC(=O)c3ccc(O)c(O)c3)nnc2-c2ccc(C)cc2)cc1"
readout_label = "IC50"
measured_value = 9.2

[[record]]
sample_smiles = "Oc1nc(Nc2ccc(Cl)cc2Cl)sc1/C=C1\\C=Nc2ccccc21"
readout_label = "IC50"
measured_value = 12.6

